This collection of values is drawn from PubChem BioAssay AID2060893.

- Test system: K86415-001-R-J1-PDC complex spheroids, viability;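 also: spheroids exposed to agents for seven days before readout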
- method: Anticancer human tumor K86415-001-R-J1-PDC patient-derived lung adenocarcinoma cell line growth inhibition [RAS]
- condition.description: curve of first compound; second compound 0.00316 µM
measured.parameter: IC50

1. CCN1CCN(Cc2ccc(Nc3ncc(F)c(-c4cc(F)c5nc(C)n(C(C)C)c5c4)n3)nc2)CC1 + C=CC(=O)N1CCN(c2nc(OCC3CCCN3C)nc3c(F)c(-c4nc(N)cc(C)c4C(F)(F)F)c(Cl)cc23)C(C)C1 = < 3.16 nM
2. C[C@@H](NC(=O)c1ncnc(N)c1Cl)c1ncc(C(=O)Nc2cc(C(F)(F)F)c(Cl)cn2)s1 + C=CC(=O)N1CCN(c2nc(OCC3CCCN3C)nc3c(F)c(-c4nc(N)cc(C)c4C(F)(F)F)c(Cl)cc23)C(C)C1 = < 31.6 nM
3. CCC(CC)c1cc(NC2CCC(N)C2)n2nccc2n1 (stereo not given) + C=CC(=O)N1CCN(c2nc(OCC3CCCN3C)nc3c(F)c(-c4nc(N)cc(C)c4C(F)(F)F)c(Cl)cc23)C(C)C1 = < 31.6 nM
4. Nc1ccn(C2OC(CO)C(O)C2(F)F)c(=O)n1 (stereo not given) + C=CC(=O)N1CCN(c2nc(OCC3CCCN3C)nc3c(F)c(-c4nc(N)cc(C)c4C(F)(F)F)c(Cl)cc23)C(C)C1 = < 3.16 nM

Shift focus to the following entry.
Fill blank: measured IC50 of the compound Cc1nc(N2CCC3(CC2)COC(C)C3N)c(CO)nc1Sc1ccnc(N)c1Cl (stereo not given) + C=CC(=O)N1CCN(c2nc(OCC3CCCN3C)nc3c(F)c(-c4nc(N)cc(C)c4C(F)(F)F)c(Cl)cc23)C(C)C1 is ____.
< 31.6 nM
